- TARGET OR TEST SYSTEM: deoxyribonucleic acid (derived from salmon sperm) with a length of 500 to 1000 bp
- ASSAY NAME: DNA binding assay of fluorescent dyes (fluorescence titration, fit to McGhee-von Hippel equation)
- CONDITION DETAILS: TE buffer (pH: 8.0); dye 200, 400, 800 nM; DNA 0.5-12 µM; excitation 475 nm, emission 520 nm; read-out: Dissociation constant Kd
pKd: −log10 of the molar value.

{"MOLECULE SMILES": "CCCN(CCCN(C)C)c1cc(/C=C2/Sc3ccccc3N2C)c2ccccc2[n+]1-c1ccccc1", "pKd": 6.00}
